Listing: median [+ligand]/median [w/o ligand]*100 of selected binders
# TARGET OF ASSAY: T1, human FLT3 (human, UniProt P36888 27-993)
# T1 construct: On transfected CHO cells, or on the FLT3 positive human AML cell lines EOL-1 / MV4-11 where the row says so; also called hu FLT3; full length human FLT3
# MEASUREMENT NOTES: FACS, scFv on CHO-human FLT3 pre-incubated with FLT3 ligand (competitor)

median [+ligand]/median [w/o ligand]*100 reported for this binder FL-13 scFv (scFv, periplasmic prep) scFv: QVTLKESGPTLVKPTETLTLTCTLSGFSLNNARMGVSWIRQPPGKALEWLAHIFSNDEKSYSTSLKNRLTISKDSSKTQVVLTMTNVDPVDTATYYCARIVGYGSGWYGFFDYWGQGTLVTVSSGGGGSGGGGSGGGGSDIQMTQSPSSLSASVGDRVTITCRASQGIRNDLGWYQQKPGKAPKRLIYAASTLQSGVPSRFSGSGSGTEFTLTISSLQPEDFATYYCLQHNSYPLTFGGGTKVEIK : ≥ 75%

median [+ligand]/median [w/o ligand]*100 reported for this binder FL-51 scFv (scFv, periplasmic prep) scFv: QVTLKESGPTLVKPTETLTLTCTVSGFSLRNVRMGVSWIRQPPGKCLEWLAHISSNDEKSYSTSLRSRLTISTDTSKSQVVLTMTNMDPVDTATYYCARMPGDSNTWRGFFDYWGQGTLVTVSSGGGGSGGGGSGGGGSEIVMTQSPATLSVSPGERATLSCRTSQSVNNNLAWYQQKPGQAPRLLIYGASTRATGIPARFSGSGSGTEFTLTISSLQPEDFATYYCLQHNSYPLTFGCGTKVEIK : ≥ 75%

median [+ligand]/median [w/o ligand]*100 reported for this binder FL-45 scFv (scFv, periplasmic prep) scFv: QVTLKESGPALVKPTQTLTLTCTFSGFSLSNARMGVSWIRQPPGKCLEWLAHIFSNDEKSYRTSLKSRLTISKDTSKSQVVLTMTNMDPVDTATYYCARIVGYGSGWYAYFDYWGQGTLVTVSSGGGGSGGGGSGGGGSDIQMTQSPSSLSASVGDRVTITCRASQGIRNDLGWYQQKPGKAPKRLIYAASSLQSGVPSRFSGSGSGTEFTLTISSLQPEDFATYYCLQHNSYPLTFGCGTKVEIK : ≥ 75%

Reference source: patent US20170037149A1
